experiment description: Toxicity liver stage against HepG2, at 10uM
Type: cell-based
Parameters: test concentration 10 uM, cell line HepG2-A16-CD81EGFP
measurement context: human, HepG2-A16-CD81EGFP cells; read-out: INHIBITION
readout kind: cytotoxicity at 10 µM (%)
Supply the numeric figure in %, leaving out any unit text.

Study these solved cases before continuing.
# molecule, readout units, observed result
measured = [
    ("CC(C)CNC(=O)c1nnsc1-c1ccccc1", "%", 10.3),
    ("O=C1C(Nc2nccn3cnnc23)CCN1c1cccc(Cl)c1 (centres undefined)", "%", -1.7),
    ("CCC(=O)NCc1cc(Br)c(OC)c(OC)c1", "%", -0.0582),
    ("O=S(=O)(CCN1CCN(c2ccccc2O)CC1)c1ccc(Cl)cc1", "%", 14.4),
    ("CC(C)CCN(C(=O)c1nc(S(C)(=O)=O)n2ccccc12)C1CC1", "%", -2.63),
    ("CC(C)(NC(=O)Cc1ccccc1F)C(=O)O", "%", 3.13),
    ("Cc1noc(C)c1-c1cccc(C2CCN(S(=O)(=O)N(C)C)CC2)n1", "%", 8.18),
    ("Cn1nnnc1SC1CCCN(c2cccc(F)c2)C1=O (centres undefined)", "%", 3.85),
    ("CCN(CCOC)C(=O)c1ccc2c(c1)nc(N1CC[C@H](O)C1)n2C", "%", -2.96),
    ("CN(C)c1ccc(C(=O)Nc2ccn(CC(N)=O)n2)cn1", "%", -5.75),
]

Consider the record given below.
query: Report cytotoxicity at 10 µM, nothing else, for this molecule: `CC(C)c1noc(C2CCN(C(=O)c3cccs3)CC2)n1`
result: 1.51

====

experiment description: Toxicity liver stage against HepG2, at 10uM
Type: cell-based
Design: test concentration 10 uM, cell line HepG2-A16-CD81EGFP
measurement context: human, HepG2-A16-CD81EGFP cells; read-out: INHIBITION
The reader will find reported cytotoxicity at 10 µM values listed item by item below.

Illustrative cases are given below, each with its answer.
# molecule, cytotoxicity at 10 µM
measured = [
    ("Cc1ccnc(OC[C@@]23CCO[C@@H]2CCN(S(C)(=O)=O)C3)n1", "9.34%"),
    ("COc1ccc(C(=O)N2CCOc3ccncc32)cc1", "12.8%"),
    ("Cn1cc(NC(=O)N2CCC(c3ccccc3)CC2)ccc1=O", "-9.42%"),
    ("O=C(C1CC12CCC2)N1CCC(n2cc(-c3ccsc3)nn2)CC1 (stereo unspecified)", "5.85%"),
    ("COc1ccccc1N1CCCC(Nc2nccnc2C#N)C1 (stereo unspecified)", "18.3%"),
]

query: Fill in reported cytotoxicity at 10 µM for this entry: `Cc1ccccc1-c1cccc(CN2C[C@H]3C(=O)NC[C@@]3(C(=O)O)C2)c1`
result: -0.147%

query: Using the record for `CCc1ccccc1OCCN(C)C(=O)CCN1CCCO1` , state its measured cytotoxicity at 10 µM.
result: -43%

query: Determine its reported cytotoxicity at 10 µM: `Cc1cccc(C(=O)N2CCO[C@H]3[C@H](OCCN(C)C)CC[C@@H]32)n1`
result: 3.31%

query: Identify the reported cytotoxicity at 10 µM for the following entry. `CN(C)CCN(C)C[C@@H]1CN(C(=O)NC2CCCC2)C[C@@H]1CO`
result: 1.35%

query: Give me measured cytotoxicity at 10 µM, please, for this molecule: Cc1c(C(=O)N2CCC(C(O)c3ccc(Cl)cc3)CC2)cnn1C (stereo unspecified)
result: -0.916%

query: In one line, give reported cytotoxicity at 10 µM of the entry `COc1cc(N2CC3(CCN(S(=O)(=O)C4CC4)C3)C2)ncn1` .
result: 7.34%

Reference for the values: ChEMBL document CHEMBL4513216
